Reported Emax values follow for various molecules
# assaySystem: mouse kappa opioid receptor (mKOR) (Mus musculus, UniProt P33534)
# Construct: Stimulation of Endogenous Mouse Kappa-Opioid Receptor in R1.G1 Cells; host or cells: R1.G1 mouse thymoma cells
# Sequence (P33534 whole entry): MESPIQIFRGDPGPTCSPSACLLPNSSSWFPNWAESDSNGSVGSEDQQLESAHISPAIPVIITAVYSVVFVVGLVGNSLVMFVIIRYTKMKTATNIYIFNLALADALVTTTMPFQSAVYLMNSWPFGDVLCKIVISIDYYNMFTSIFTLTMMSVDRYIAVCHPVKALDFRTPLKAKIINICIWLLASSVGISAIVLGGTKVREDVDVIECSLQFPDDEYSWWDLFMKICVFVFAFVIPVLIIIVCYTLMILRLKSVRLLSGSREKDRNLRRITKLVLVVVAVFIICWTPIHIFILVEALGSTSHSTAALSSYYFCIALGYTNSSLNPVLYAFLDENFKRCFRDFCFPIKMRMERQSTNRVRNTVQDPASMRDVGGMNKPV
# measurementDescription: cell-based
# runConditions: read-out: mKOR Efficacy(%)
Square brackets hold non-standard residues; d marks the D form. Peptide text beside a SMILES is read from it. * marks the point of attachment. Piperidinyl(4-(1-Pro-OH)) = O=C(O)[C@@H]1CCCN1C1CCN(*)CC1; dAgb = N=C(N)NCC[C@@H](N)C(=O)O

# molecule, valueUnit, Emax
records = [
    ("CNCCCC[C@@H](NC(=O)[C@@H](CC(C)C)NC(=O)[C@@H](Cc1ccccc1)NC(=O)[C@H](N)Cc1ccccc1)C(=O)N1CCC(N2CCC[C@H]2C(=O)O)CC1", "%", 94),
    ("CC(C)C[C@@H](NC(=O)[C@@H](Cc1ccccc1)NC(=O)[C@H](N)Cc1ccccc1)C(=O)N[C@H](CCNC(=N)N)C(=O)N1CCC(N2CCC[C@H]2C(=O)O)CC1 [Compound (13)] (H-[dF][dF][dL][dAgb]-{Piperidinyl(4-(1-Pro-OH))})", "%", 88),
    ("CC(C)C[C@@H](NC(=O)[C@@H](Cc1ccccc1)NC(=O)[C@H](N)Cc1ccccc1)C(=O)N[C@H](CCCCN)C(=O)NCc1cn2ccccc2n1", "%", 90),
    ("CNCCC[C@@H](NC(=O)[C@@H](CC(C)C)NC(=O)[C@@H](Cc1ccccc1)NC(=O)[C@H](N)Cc1ccccc1)C(=O)N1CCCNCC1", "%", 95),
    ("CC(C)C[C@@H](NC(=O)[C@@H](Cc1ccccc1)NC(=O)[C@H](N)Cc1ccccc1)C(=O)N[C@H](CCCN)C(=O)N1CCC(CC(N)C(=O)O)CC1 (some centres unmarked)", "%", 102),
]
